composite z-score by entry:
System: Plasmodium falciparum Sir2 (PF13_0152, Sir2A)
assay method text: pfSir2 binders on small-molecule microarrays, primary screen, biochemical, small-molecule microarray, 635 nm fluorescence (AID 1098);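 further: score merges spot fluorescence intensity with its signal-to-noise ratio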
conditions: small-molecule microarray binding, fluorescence 635 nm; higher = more signal
In your answer, state the number alone without any accompanying words.

Please review the entries below; each comes with its answer.
O=C(NN=C1C[C@@H](O)[C@@H](O)[C@@H]2[C@@H]3C(=O)N(C4CCCCC4)C(=O)[C@@H]3CC[C@@H]12)OCc1ccccc1 : 0.174
O=C1[C@H]2[C@H]3[C@H](O)[C@H](O)CC(=NO[C@@H]4O[C@H](CO)[C@@H](O)[C@H](O)[C@H]4O)[C@H]3CC[C@H]2C(=O)N1c1cccc(Oc2ccccc2)c1 : 0.0739

Query :: For the compound COC(=O)[C@@H]1CC[C@@H](C)[C@H](c2ccc(Br)cc2)N1 , what composite z-score is on record?
Result :: 0.644

Query :: Also check CCOC(=O)[C@H](Cc1ccccc1)NC(=O)CCC1CC(OC(=O)NCc2cccc3ccccc23)CC2(CCCC(COC(=O)NCC(c3ccccc3)c3ccccc3)O2)O1 (some centres undefined)
Result :: 0.812
